Subject of test: Toll-like receptor 7 (Homo sapiens, UniProt Q9NYK1)
Sequence (Q9NYK1 whole entry): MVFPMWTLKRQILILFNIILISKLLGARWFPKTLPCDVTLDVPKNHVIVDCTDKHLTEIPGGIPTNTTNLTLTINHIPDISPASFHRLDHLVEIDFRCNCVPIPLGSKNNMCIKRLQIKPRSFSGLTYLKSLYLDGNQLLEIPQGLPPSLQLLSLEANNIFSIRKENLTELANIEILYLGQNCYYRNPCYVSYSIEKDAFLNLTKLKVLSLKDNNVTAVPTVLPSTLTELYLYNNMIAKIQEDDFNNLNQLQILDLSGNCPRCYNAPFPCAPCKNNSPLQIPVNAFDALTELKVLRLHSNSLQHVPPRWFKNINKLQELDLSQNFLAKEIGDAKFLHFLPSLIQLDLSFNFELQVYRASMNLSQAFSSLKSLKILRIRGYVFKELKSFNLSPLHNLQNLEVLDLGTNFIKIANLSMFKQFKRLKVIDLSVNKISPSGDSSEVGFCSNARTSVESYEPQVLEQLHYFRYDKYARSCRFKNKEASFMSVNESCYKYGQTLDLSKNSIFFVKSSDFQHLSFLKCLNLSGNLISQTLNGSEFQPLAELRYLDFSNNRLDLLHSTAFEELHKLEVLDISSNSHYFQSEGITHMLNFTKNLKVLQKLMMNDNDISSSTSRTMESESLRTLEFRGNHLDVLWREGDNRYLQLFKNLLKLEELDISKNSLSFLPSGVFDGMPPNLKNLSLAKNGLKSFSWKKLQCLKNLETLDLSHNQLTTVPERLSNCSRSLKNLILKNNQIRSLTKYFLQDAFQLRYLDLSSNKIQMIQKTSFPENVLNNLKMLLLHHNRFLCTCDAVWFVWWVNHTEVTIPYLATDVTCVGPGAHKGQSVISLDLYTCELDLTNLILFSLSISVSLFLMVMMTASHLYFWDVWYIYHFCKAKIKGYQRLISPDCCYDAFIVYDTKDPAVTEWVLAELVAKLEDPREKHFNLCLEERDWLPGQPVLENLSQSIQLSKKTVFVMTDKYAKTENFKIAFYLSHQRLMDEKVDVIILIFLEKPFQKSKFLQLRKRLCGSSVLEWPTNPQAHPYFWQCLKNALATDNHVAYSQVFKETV
Assay info: Inhibition of human TLR7 expressed in HEK293 cells assessed as reduction in R848-induced NFkappaB production incubated for 16 hrs by quanti-blue SEAP assay
Assay endpoint: IC50

Solved entries (count: 8):
O=C(Nc1ccc(Oc2cccc(C(F)(F)F)c2)cc1)c1c(F)cccc1Cl: 2.65 µM
O=C(Nc1ccc(Oc2cc(C(F)(F)F)cc(C(F)(F)F)c2)cc1)c1ncccc1F: > 50 µM
O=[N+]([O-])c1c(I)cccc1Oc1ccc(-c2nnco2)cc1: > 20 µM
O=C(Nc1ccc(Oc2cc(C(F)(F)F)cc(C(F)(F)F)c2)cc1)c1c(F)cccc1Br: 1 µM
O=C(Nc1ccc(Oc2cc(C(F)(F)F)cc(C(F)(F)F)c2)cc1)c1c(F)cccc1OC(F)(F)F: > 50 µM
O=C(Nc1ccc(Oc2cc(C(F)(F)F)cc(C(F)(F)F)c2)cc1)c1c(F)cccc1Cl: 2.88 µM
O=C(Nc1ccc(Oc2cc(C(F)(F)F)cc(C(F)(F)F)c2)cc1)c1ccc2[nH]ccc2c1: > 50 µM
O=C(Nc1ccc(Oc2cc(C(F)(F)F)cc(C(F)(F)F)c2)cc1O)c1c(F)cccc1I: 4.73 µM

Next compound, IC50 to be filled in.
According to the records, this compound Nc1ccc(C(=O)Nc2ccc(Oc3cc(C(F)(F)F)cc(C(F)(F)F)c3)cc2)c(F)c1 displays IC50 of > 50 µM

====

Subject of test: Toll-like receptor 8 (Homo sapiens, UniProt Q9NR97)
Assay info: Inhibition of human TLR8 expressed in HEK293 cells assessed as reduction in R848-induced NFkappaB production incubated for 16 hrs by quanti-blue SEAP assay
Assay type: cell-based
pIC50: −log10 of the molar value.
Assay endpoint: pIC50

Solved entries (count: 3):
O=C(Nc1ccc(Oc2cc(C(F)(F)F)cc(C(F)(F)F)c2)cc1)c1c(F)cccc1Br: 5.22
O=C(Nc1ccc(Oc2cccc(C(F)(F)F)c2)cc1)c1c(F)cccc1Cl: 5.62
O=C(Nc1ccc(Oc2cc(F)cc(C(F)(F)F)c2)cc1)c1c(F)cccc1Cl: 5.80

P = O=C(Nc1ccc(Oc2cc(C(F)(F)F)cc(C(F)(F)F)c2)cc1)c1ccccc1F
Q = O=[N+]([O-])c1c(I)cccc1Oc1ccc(-c2nnco2)cc1
# returns the entry with the larger pIC50; inputs P and Q # answer = label of selected item Q
(Q: 6.52, P: 5.52)

====

Subject of test: Toll-like receptor 8 (Homo sapiens)
Assay info: Inhibition of human TLR8 expressed in HEK293 cells assessed as reduction in ssRNA-induced NFkappaB production incubated for 16 hrs by quanti-blue SEAP assay
Type: cell-based
Assay endpoint: IC50 (nM)
Please respond with the number in nM and leave the unit unwritten.

According to the records, this molecule O=[N+]([O-])c1c(I)cccc1Oc1ccc(-c2nnco2)cc1 displays IC50 of 620

====

Subject of test: Toll-like receptor 8 (Homo sapiens) (UniProt Q9NR97)
Sequence (whole entry): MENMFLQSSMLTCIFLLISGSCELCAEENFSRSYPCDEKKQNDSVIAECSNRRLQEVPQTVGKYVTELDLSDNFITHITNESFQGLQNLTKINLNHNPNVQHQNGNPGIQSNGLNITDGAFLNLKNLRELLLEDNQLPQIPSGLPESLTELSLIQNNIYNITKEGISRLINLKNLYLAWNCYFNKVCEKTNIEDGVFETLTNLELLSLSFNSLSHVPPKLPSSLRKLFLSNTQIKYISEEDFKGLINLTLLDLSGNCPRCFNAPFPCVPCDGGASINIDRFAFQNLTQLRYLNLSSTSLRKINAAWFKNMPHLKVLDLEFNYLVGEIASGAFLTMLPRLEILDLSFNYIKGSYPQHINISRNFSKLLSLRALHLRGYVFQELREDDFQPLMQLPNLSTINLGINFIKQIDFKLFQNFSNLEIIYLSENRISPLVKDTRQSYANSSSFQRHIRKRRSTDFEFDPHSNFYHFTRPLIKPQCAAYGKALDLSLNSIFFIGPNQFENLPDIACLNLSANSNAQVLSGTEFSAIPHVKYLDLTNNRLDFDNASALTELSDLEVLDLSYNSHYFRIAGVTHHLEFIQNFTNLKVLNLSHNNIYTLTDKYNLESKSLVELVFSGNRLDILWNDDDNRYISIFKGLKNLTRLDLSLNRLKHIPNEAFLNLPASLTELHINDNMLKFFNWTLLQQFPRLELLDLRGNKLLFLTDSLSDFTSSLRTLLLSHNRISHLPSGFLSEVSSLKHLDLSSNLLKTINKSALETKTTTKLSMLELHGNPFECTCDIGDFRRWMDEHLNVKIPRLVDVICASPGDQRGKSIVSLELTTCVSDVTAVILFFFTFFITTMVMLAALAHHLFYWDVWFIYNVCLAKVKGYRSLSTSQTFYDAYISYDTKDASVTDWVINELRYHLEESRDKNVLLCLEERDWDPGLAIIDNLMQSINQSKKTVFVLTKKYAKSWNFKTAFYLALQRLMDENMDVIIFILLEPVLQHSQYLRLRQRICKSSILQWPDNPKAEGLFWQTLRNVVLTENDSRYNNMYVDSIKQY
Assay info: Inhibition of human TLR8 expressed in HEK293 cells assessed as reduction in R848-induced NFkappaB production at 1.5 to 5 uM incubated for 16 hrs by quanti-blue SEAP assay
Format: cell-based
Assay endpoint: inhibition (%)

C#Cc1cccc(F)c1C(=O)Nc1ccc(Oc2cc(C(F)(F)F)cc(C(F)(F)F)c2)cc1: 0
O=C(Nc1ccc(Oc2cc(C(F)(F)F)cc(C(F)(F)F)c2)cc1)c1c(F)cccc1F: 0
O=C(Nc1ccc(Oc2cc(C(F)(F)F)cc(C(F)(F)F)c2)cc1)c1ccco1: 0
